Parameter: GI%. Scope: all listed entries.
system: SNB-75; experiment: NCI 60 single concentration growth inhibition; type: cell-based, human; conditions: SNB-75, CNS cancer, 10 μM

Compound: COc1ccc(-c2nc3cc(Cl)c(Cl)cc3n2CC(=O)NN=Cc2ccc(OC)c(O)c2)cc1 [Compound 10k]
GI% [%]: 33.65
//
Compound: CCOC(=O)C(C)Oc1ccc(C=NNC(=O)Cn2c(-c3ccc(OC)cc3)nc3cc(Cl)c(Cl)cc32)cc1 (stereo not shown) [Compound 10j]
GI% [%]: 5.72
//
Compound: COC(=O)COc1cc(C=NNC(=O)Cn2c(-c3ccc(OC)cc3)nc3cc(Cl)c(Cl)cc32)ccc1OC [Compound 10o]
GI% [%]: 27.54

* * *

Parameter: inhibition at 10 µM. Scope: all listed entries.
System: NCI-H460
Test: NCI 60 single concentration growth inhibition
Format: cell-based, human
Settings: Homo sapiens, NCI-H460, Non-small cell lung cancer, read-out: GI%
Method: The synthesized dichlorobenzimidazoles 10a–p were assayed for their influence on divers cancer cell lines according to the method presented in the Additional file A. 5. Screening of cytotoxic activity against a panel of sixty human tumor cell lines The selected compounds by NCI were evaluated for their anticancer activity in a two-stage process. First, these compounds were screened against the full NCI 60 cell lines panel at a single high dose of 10 µM. […]

Compound: COc1ccc(-c2nc3cc(Cl)c(Cl)cc3n2CC(=O)NN=Cc2ccc(O)cc2)cc1 [Compound 10b]
Measurement Target: NCI-H460
Inequality Operator: =
inhibition at 10 µM, %: 49.7
//
Compound: COc1ccc(-c2nc3cc(Cl)c(Cl)cc3n2CC(=O)NN=Cc2cccc(O)c2)cc1 [Compound 10a]
Measurement Target: NCI-H460
Inequality Operator: =
inhibition at 10 µM, %: 46.8
//
Compound: COC(=O)COc1ccc(C=NNC(=O)Cn2c(-c3ccc(OC)cc3)nc3cc(Cl)c(Cl)cc32)cc1OC [Compound 10p]
Measurement Target: NCI-H460
Inequality Operator: <
inhibition at 10 µM, %: 5
//
Compound: COc1ccc(-c2nc3cc(Cl)c(Cl)cc3n2CC(=O)NN=Cc2ccc(OC)c(O)c2)cc1 [Compound 10k]
Measurement Target: NCI-H460
Inequality Operator: =
inhibition at 10 µM, %: 24.8
//
Compound: COC(=O)COc1cccc(C=NNC(=O)Cn2c(-c3ccc(OC)cc3)nc3cc(Cl)c(Cl)cc32)c1 [Compound 10g]
Measurement Target: NCI-H460
Inequality Operator: <
inhibition at 10 µM, %: 5
//
Compound: COC(=O)COc1cc(C=NNC(=O)Cn2c(-c3ccc(OC)cc3)nc3cc(Cl)c(Cl)cc32)ccc1OC [Compound 10o]
Measurement Target: NCI-H460
Inequality Operator: <
inhibition at 10 µM, %: 5
//
Compound: COc1ccc(-c2nc3cc(Cl)c(Cl)cc3n2CC(=O)NN=Cc2ccc(O)c(OC)c2)cc1 [Compound 10l]
Measurement Target: NCI-H460
Inequality Operator: =
inhibition at 10 µM, %: 31
//
Compound: COC(=O)COc1ccc(C=NNC(=O)Cn2c(-c3ccc(OC)cc3)nc3cc(Cl)c(Cl)cc32)cc1 [Compound 10h]
Measurement Target: NCI-H460
Inequality Operator: <
inhibition at 10 µM, %: 5
//
Compound: COc1ccc(C=NNC(=O)Cn2c(-c3ccc(OC)cc3)nc3cc(Cl)c(Cl)cc32)cc1 [Compound 10d]
Measurement Target: NCI-H460
Inequality Operator: =
inhibition at 10 µM, %: 47.2
//
Compound: COc1ccc(-c2nc3cc(Cl)c(Cl)cc3n2CC(=O)NN=Cc2cccc(OC)c2)cc1 [Compound 10c]
Measurement Target: NCI-H460
Inequality Operator: =
inhibition at 10 µM, %: 23.7
//
Compound: COc1ccc(-c2nc3cc(Cl)c(Cl)cc3n2CC(=O)NN=Cc2cccc(OCC(=O)O)c2)cc1 [Compound 10e]
Measurement Target: NCI-H460
Inequality Operator: <
inhibition at 10 µM, %: 5
//
Compound: CCOC(=O)C(C)Oc1ccc(C=NNC(=O)Cn2c(-c3ccc(OC)cc3)nc3cc(Cl)c(Cl)cc32)cc1 (stereo not shown) [Compound 10j]
Measurement Target: NCI-H460
Inequality Operator: <
inhibition at 10 µM, %: 5
//
Compound: COc1ccc(-c2nc3cc(Cl)c(Cl)cc3n2CC(=O)NN=Cc2ccc(OCC(=O)O)cc2)cc1 [Compound 10f]
Measurement Target: NCI-H460
Inequality Operator: <
inhibition at 10 µM, %: 5

* * *

test system: DU-145; assay: NCI 60 single concentration growth inhibition; assay type: cell-based, human; conditions: Homo sapiens, DU-145, Prostate cancer, read-out: GI%
Recorded Metric: inhibition at 10 µM

Compound: COc1ccc(-c2nc3cc(Cl)c(Cl)cc3n2CC(=O)NN=Cc2cccc(OC)c2)cc1 [Compound 10c]
Value Observed: 23.3%
--
Compound: COc1ccc(-c2nc3cc(Cl)c(Cl)cc3n2CC(=O)NN=Cc2cccc(O)c2)cc1 [Compound 10a]
Value Observed: 44.2%
--
Compound: COc1ccc(-c2nc3cc(Cl)c(Cl)cc3n2CC(=O)NN=Cc2ccc(O)cc2)cc1 [Compound 10b]
Value Observed: 30.8%
--
Compound: COc1ccc(-c2nc3cc(Cl)c(Cl)cc3n2CC(=O)NN=Cc2ccc(OCC(=O)O)cc2)cc1 [Compound 10f]
Value Observed: < 5%
--
Compound: CCOC(=O)C(C)Oc1ccc(C=NNC(=O)Cn2c(-c3ccc(OC)cc3)nc3cc(Cl)c(Cl)cc32)cc1 (stereo not drawn) [Compound 10j]
Value Observed: 85.2%
--
Compound: COc1ccc(C=NNC(=O)Cn2c(-c3ccc(OC)cc3)nc3cc(Cl)c(Cl)cc32)cc1 [Compound 10d]
Value Observed: 41.2%

* * *

Parameter: inhibition at 10 µM. Scope: all listed entries.
system: NCI-H226; experiment: NCI 60 single concentration growth inhibition; format: cell-based, human; details: Homo sapiens, NCI-H226, Non-small cell lung cancer, read-out: GI%
Recorded Metric: inhibition at 10 µM (%)

Compound: COc1ccc(C=NNC(=O)Cn2c(-c3ccc(OC)cc3)nc3cc(Cl)c(Cl)cc32)cc1 [Compound 10d]
Recorded Metric: inhibition at 10 µM
Inequality Operator: =
Value Observed: 33.9
--
Compound: CCOC(=O)C(C)Oc1ccc(C=NNC(=O)Cn2c(-c3ccc(OC)cc3)nc3cc(Cl)c(Cl)cc32)cc1 (centres unmarked) [Compound 10j]
Recorded Metric: inhibition at 10 µM
Inequality Operator: =
Value Observed: 7.33
--
Compound: COc1ccc(-c2nc3cc(Cl)c(Cl)cc3n2CC(=O)NN=Cc2ccc(OC)c(O)c2)cc1 [Compound 10k]
Recorded Metric: inhibition at 10 µM
Inequality Operator: =
Value Observed: 48.1
--
Compound: COC(=O)COc1cccc(C=NNC(=O)Cn2c(-c3ccc(OC)cc3)nc3cc(Cl)c(Cl)cc32)c1 [Compound 10g]
Recorded Metric: inhibition at 10 µM
Inequality Operator: =
Value Observed: 8
--
Compound: COC(=O)COc1ccc(C=NNC(=O)Cn2c(-c3ccc(OC)cc3)nc3cc(Cl)c(Cl)cc32)cc1OC [Compound 10p]
Recorded Metric: inhibition at 10 µM
Inequality Operator: <
Value Observed: 5

* * *

Parameter: inhibition at 10 µM. Scope: all listed entries.
system: NCI-H23; assay: NCI 60 single concentration growth inhibition; assay type: cell-based, human; conditions: Homo sapiens, NCI-H23, Non-small cell lung cancer, read-out: GI%
Recorded Metric: inhibition at 10 µM (%)

Compound: COc1ccc(-c2nc3cc(Cl)c(Cl)cc3n2CC(=O)NN=Cc2cccc(OC)c2)cc1 [Compound 10c]
Units: %
Inequality Operator: =
Value Observed: 10.2
//
Compound: COc1ccc(C=NNC(=O)Cn2c(-c3ccc(OC)cc3)nc3cc(Cl)c(Cl)cc32)cc1 [Compound 10d]
Units: %
Inequality Operator: =
Value Observed: 50.9
//
Compound: COC(=O)COc1ccc(C=NNC(=O)Cn2c(-c3ccc(OC)cc3)nc3cc(Cl)c(Cl)cc32)cc1 [Compound 10h]
Units: %
Inequality Operator: <
Value Observed: 5
//
Compound: COc1ccc(-c2nc3cc(Cl)c(Cl)cc3n2CC(=O)NN=Cc2cccc(OCC(=O)O)c2)cc1 [Compound 10e]
Units: %
Inequality Operator: =
Value Observed: 5.12
//
Compound: CCOC(=O)C(C)Oc1ccc(C=NNC(=O)Cn2c(-c3ccc(OC)cc3)nc3cc(Cl)c(Cl)cc32)cc1 (stereo not shown) [Compound 10j]
Units: %
Inequality Operator: =
Value Observed: 20.8
//
Compound: COc1ccc(-c2nc3cc(Cl)c(Cl)cc3n2CC(=O)NN=Cc2cccc(O)c2)cc1 [Compound 10a]
Units: %
Inequality Operator: =
Value Observed: 53.8
//
Compound: COc1ccc(-c2nc3cc(Cl)c(Cl)cc3n2CC(=O)NN=Cc2ccc(O)c(OC)c2)cc1 [Compound 10l]
Units: %
Inequality Operator: =
Value Observed: 15
//
Compound: COC(=O)COc1ccc(C=NNC(=O)Cn2c(-c3ccc(OC)cc3)nc3cc(Cl)c(Cl)cc32)cc1OC [Compound 10p]
Units: %
Inequality Operator: <
Value Observed: 5
//
Compound: COc1ccc(-c2nc3cc(Cl)c(Cl)cc3n2CC(=O)NN=Cc2ccc(O)cc2)cc1 [Compound 10b]
Units: %
Inequality Operator: =
Value Observed: 20.3
//
Compound: COC(=O)COc1cccc(C=NNC(=O)Cn2c(-c3ccc(OC)cc3)nc3cc(Cl)c(Cl)cc32)c1 [Compound 10g]
Units: %
Inequality Operator: <
Value Observed: 5
//
Compound: COC(=O)COc1cc(C=NNC(=O)Cn2c(-c3ccc(OC)cc3)nc3cc(Cl)c(Cl)cc32)ccc1OC [Compound 10o]
Units: %
Inequality Operator: =
Value Observed: 7.03
//
Compound: COc1ccc(-c2nc3cc(Cl)c(Cl)cc3n2CC(=O)NN=Cc2ccc(OCC(=O)O)cc2)cc1 [Compound 10f]
Units: %
Inequality Operator: <
Value Observed: 5
//
Compound: COc1ccc(-c2nc3cc(Cl)c(Cl)cc3n2CC(=O)NN=Cc2ccc(OC)c(O)c2)cc1 [Compound 10k]
Units: %
Inequality Operator: =
Value Observed: 21.1

src = paper PMC11844072
